Recorded values, source patent US6593334B1.

# Test system: human tumor cell lines (HTCL)
# ASSAY_PROTOCOL: Human tumor cell line (HTCL) panel, mean over lines
# Type: cell-based
# ASSAY_SETUP: mean from HTCL data, does not include values for drug-resistant variants
The following compounds are shown together with reported Mean ED50 values.
Value expressed in log10 M; do not type the unit.

The examples below pair each entry with its known result.
INSERT INTO assay_data (compound, unit_annotation, test_value) VALUES
  ('CCC1(O)C(=O)OCc2c1cc1n(c2=O)Cc2c-1nc1ccccc1c2C=NCCCCCC(=O)OC1CC2OCC2(OC(C)=O)C2C(OC(=O)c3ccccc3)C3(O)CC(OC(=O)C(O)C(NC(=O)c4ccccc4)c4ccccc4)C(C)=C(C(OC(C)=O)C(=O)C12C)C3(C)C (centres unmarked) [Compound 18]', 'log10 M', '−9.0'),
  ('CC(=O)O[C@H]1C(=O)[C@@]2(C)[C@H]([C@H](OC(=O)c3ccccc3)[C@]3(O)C[C@H](OC(=O)[C@H](O)[C@@H](NC(=O)c4ccccc4)c4ccccc4)C(C)=C1C3(C)C)[C@]1(OC(C)=O)CO[C@@H]1C[C@@H]2O [Paclitaxel, reference compound]', 'log10 M', '−11.1'),
  ('CCC1(O)C(=O)OCc2c1cc1n(c2=O)Cc2c-1nc1ccccc1c2C=NCCCC(=O)OC1CC2OCC2(OC(C)=O)C2C(OC(=O)c3ccccc3)C3(O)CC(OC(=O)C(O)C(NC(=O)c4ccccc4)c4ccccc4)C(C)=C(C(OC(C)=O)C(=O)C12C)C3(C)C (centres unmarked) [Compound 17]', 'log10 M', '−9.0');

Lookup: What does the data say about its Mean ED50? Entry: CC[C@@]1(O)C(=O)OCc2c1cc1n(c2=O)Cc2cc3ccccc3nc2-1 [Camptothecin, camptothecin]
Found: −8.9
